Data origin, for the record: PubChem BioAssay

- target_under_test: Concanavalin-A (Canavalia ensiformis) (UniProt P02866)
- Sequence (P02866 whole entry, looked up): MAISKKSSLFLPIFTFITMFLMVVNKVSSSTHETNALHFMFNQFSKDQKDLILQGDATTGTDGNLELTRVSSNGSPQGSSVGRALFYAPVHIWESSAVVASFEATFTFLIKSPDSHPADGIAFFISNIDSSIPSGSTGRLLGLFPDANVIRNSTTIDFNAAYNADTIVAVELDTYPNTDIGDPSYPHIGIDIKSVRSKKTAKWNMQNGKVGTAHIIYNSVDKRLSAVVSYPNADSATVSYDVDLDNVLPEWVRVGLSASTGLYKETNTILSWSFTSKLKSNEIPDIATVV
- procedure_summary: ConA small-molecule binders, primary screen, artefact control for SMM control protein annotation, biochemical, small-molecule microarray, Alexa647 label, 635 nm (AID 1127);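 further: z combines 667 nm emission intensity with signal-to-noise across three replicate slides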
- test_settings: ConA-A647 binding fluorescence, higher = more signal
Here the recorded composite z-score is given for each entry.

{"columns": ["compound", "composite z-score"],
 "data": [
  ["COC(=O)C1=C(C)N(Cc2ccccc2)c2c(C(=O)OC)c(C(=O)OC)c(C(=O)OC)c(=O)n2[C@@H]1c1ccccc1", 0.641],
  ["COc1ccc([Si](C)(C)[C@H]2[C@H](CC(=O)N3Cc4ccccc4C[C@H]3CO)O[C@@]3(C(=O)N(Cc4cccc(N5CCOC5=O)c4)c4ccccc43)[C@@H]2C)cc1", 0.791],
  ["CCCC[C@@H]1C[C@H]1[C@@H](NC(=O)c1ccccc1)c1ccccc1C(F)(F)F", 1.17],
  ["CO[C@@H]1COC(=O)[C@H](COCc2ccccc2)NC(=O)CC=C[C@@H](C)[C@H](OC)COC(=O)[C@H](COCc2ccccc2)NC(=O)CC=C[C@H]1C", -0.582],
  ["C=CCNC(=O)[C@@H]1[C@H]2C(=O)O[C@H](c3ccccc3)[C@H](c3ccccc3)N2[C@H](c2ccc(OCCO)cc2)[C@@]12C(=O)N(C(=O)OCCOC)c1ccc(C#CC3(O)CCCCCC3)cc12", 1.07],
  ["CO[C@H]1COC(=O)[C@@H](C)COC(=O)[C@H](Cc2ccccc2)NC(=O)CC=C[C@H]1C", -0.268],
  ["CCCC=C(CCC)[C@@H](NC(=O)c1ccccc1)c1ccccc1", -0.604],
  ["COCCOC(=O)N1C(=O)[C@@]2(c3cc(C#CCNC(N)=O)ccc31)[C@H](c1ccc(OCCO)cc1)N1[C@H](c3ccccc3)[C@H](c3ccccc3)OC(=O)[C@H]1[C@@H]2C(=O)Nc1nc2ccccc2s1", 0.915],
  ["C=C(C(=O)CC[C@H](OC(=O)c1ccccc1-c1ccccc1C(=O)O)c1ccc(CO)o1)C(C)C", 1.07],
  ["O=C1c2ccccc2[C@](Cc2ccccc2I)(C(=O)O)[C@H](c2ccc(CO)cc2)N1C1CCCCC1", 1.21],
  ["Cc1ccc(S(=O)(=O)N2[C@@H](c3ccccc3)C(C(=O)O)=CC[C@H]2c2ccccc2)cc1", 0.0991],
  ["O=C1C[C@@](C(=O)NCCN2CCOCC2)(c2ccc([N+](=O)[O-])cc2)[C@@H](c2ccc(CO)cc2)N1C1CCCCC1", 1.06],
  ["Cc1ccc([C@@H]2CC=C(C(=O)O)[C@H](c3ccccc3)N2S(=O)(=O)c2ccc(C)cc2)cc1", 1.22],
  ["CO[C@H]1O[C@H](CO)[C@@H](OC(=O)Nc2ccc3c(c2)OCO3)[C@H](OC(=O)Nc2ccccc2)[C@@H]1OC(=O)Nc1ccccc1", 1.09],
  ["O=C(O)[C@@H]1Cc2c([nH]c3ccccc23)[C@@H](c2ccccc2)N1", 0.813],
  ["CO[C@H]1COC(=O)[C@H](CCSC)NC(=O)CC=C[C@@H](C)COC(=O)[C@@H](OCc2ccccc2)C=C[C@@H]1C", -0.623],
  ["Cc1ccc(S[C@]2(C(=O)NCCN3CCOCC3)CC(=O)N(C3Cc4ccccc4C3)[C@@H]2c2ccc(CO)cc2I)cc1", -0.587],
  ["CCCC=C(CCC)[C@@H](NS(=O)(=O)c1ccc(C(F)(F)F)cc1)c1ccc(-c2ccccc2)cc1", 0.882],
  ["CC(C)C[C@@H]1NC(=O)[C@H]2C[C@@H](C(=O)NCCCCCC[N+](C)(C)C)[C@@H](c3ccc(O)cc3)N2C1=O", 0.452],
  ["O=C1c2ccccc2[C@](Cc2ccccc2I)(C(=O)NCC(F)(F)F)[C@H](c2ccc(CO)cc2)N1Cc1ccccc1C(F)(F)F", 0.609],
  ["C=CC(=O)O[C@@H](Cc1ccccc1)[C@H]1C2C=CCCC=C2CN1Cc1cccc(Cl)c1 (stereo partly drawn)", -0.965],
  ["C[C@@H]1C=CCC(=O)OC[C@H]2O[C@@H](C=C[C@@H]2O)[C@H](C)C=CCC(=O)OC[C@H]2O[C@H]1C=C[C@@H]2O", -0.343],
  ["CC(=O)NCCCC[C@@H]1NC(=O)[C@@H]2C[C@H](C(=O)NCCCCCCN(C)C)[C@H](c3ccc(O)cc3)N2C1=O", 1.21],
  ["C[C@@H]1CC[C@H]2C(=O)N3CCC[C@H]3C(=O)N2[C@H]1c1ccc(Br)cc1", -0.377],
  ["COc1cc2c(cc1OC)CN(C(=O)[C@H]1[C@@H]3C(=O)O[C@@H](c4ccccc4)[C@@H](c4ccccc4)N3[C@@H](c3ccc(O)cc3)[C@]13C(=O)Nc1ccc(C#CC4(O)CCCCCC4)cc13)CC2", 1.13],
  ["C#CCCCON=C1C[C@@H](O)[C@@H](O)[C@@H]2[C@@H]3C(=O)N(Cc4ccc5c(c4)OCO5)C(=O)[C@@H]3CC[C@H]12", 0.752],
  ["CO[C@@H]1COC(=O)CC=C[C@@H](C)[C@H](OC)COC(=O)CC=C[C@H]1C", -0.362],
  ["COCCOC(=O)N1C(=O)[C@@]2(c3cc(C#CCNC(N)=O)ccc31)[C@H](C(=O)N1CCCCCCC1)[C@H]1C(=O)O[C@H](c3ccccc3)[C@H](c3ccccc3)N1[C@@H]2c1ccccc1OCCO", 1.08]
]}
